# log10(TGI) per record follows
# System: BT-549 breast
# measurement_protocol: NCI tumour cell line growth inhibition, 48 h
quantity_measured: log10(TGI) (log10 of the value in µM)

> print(dat)
                                    compound  measured.value
 1  C=C1C[C@](OC)([C@H](O)C(=O)N[C@@H](OC)[C@@H]2C[C@@H](O)C(C)(C)[C@@H](C[C@@H](COC)OC)O2)O[C@H](C)[C@@H]1C           -2.49
 2  Cc1ccc(-c2c(C#N)c(S)n(NS(=O)(=O)c3ccc(C)cc3)c(=O)c2C#N)cc1            1.68
 3      CCCCCCCCCCCCCCCCCC1=NCCN1CS(=O)(=O)O            1.58
 4  COc1ccc(-c2ccc(/C=N/n3c(COc4ccccc4Cl)nn(CN4CCN(C)CC4)c3=S)o2)c([N+](=O)[O-])c1            1.63
 5  CC(C)C1(C)N=C(C(F)(F)F)c2cc(C(=O)C(F)(F)F)c3ccccc3c2N1 (stereo not drawn)            1.03
 6     CCN(CC)CCCNc1cccc2c(SCc3ccccc3)ccnc12            0.53
 7   O=C1Nc2cccc(Cl)c2/C1=C\c1c(Cl)nc2sccn12            1.87
 8  Cc1cc(C)nc(NS(=O)(=O)c2ccc(Nc3c4ccccc4nc4c(C(=O)NCCCN(CCO)CCO)cccc34)cc2)n1            1.44
 9       CC(C)(C)c1nc2c(o1)C(=O)c1ccccc1C2=O            0.45
10  CC(C)NC(=O)CN1CCN(C2=CC(=O)c3c(O)ccc(O)c3C2=O)CC1            1.51
11  Cc1nc2sccn2c(=O)c1CCN1CCC(=C(c2ccc(F)cc2)c2ccc(F)cc2)CC1            1.39

---

# Tested on: SF-268 CNS
# measurement_protocol: NCI tumour cell line growth inhibition, 48 h; in the data active = GI50 below about 0.43 µM; inactive = the rest
Classes used: active, inactive

> print(dat)
                                   molecule     label
1  NC(CSC(c1ccccc1)(c1ccccc1)c1ccc(Cl)cc1)C(=O)O (stereo not given)    active
2  COc1cc(/C=C/c2cc(/C=C/c3ccc(O)c(OC)c3)n(-c3c(C)cccc3C)c(=O)n2)ccc1O  inactive
3  COc1cccc(C2C(C#N)=C(N)Oc3cc(N)ccc32)c1 (stereo not given)  inactive
4  COC(=O)c1ccc2c(c1)nc(-c1cc3ccccc3[nH]c1=O)n2-c1cc(C(C)(C)C)[nH]n1  inactive
5  Cc1cccc(Oc2nccc(-c3c(-c4ccc(F)cc4)ncn3C3CCNCC3)n2)c1C  inactive

---

# System: OVCAR-8 ovarian
# measurement_protocol: NCI tumour cell line growth inhibition, 48 h
Some compounds, each annotated with its measured TGI.
quantity_measured: TGI

> print(dat)
                                    compound  quantity.measured  measured.value
 1  CN(C)CCNc1ccc2c(=O)n(CCN(C)C)c(=O)n3c4ccc([N+](=O)[O-])cc4c(=O)c1c23                TGI         3.99 µM
 2  Nc1c(-c2nc3ccccc3s2)c2ccc([N+](=O)[O-])cc2c(=O)n1-c1cccc(C(=O)O)c1                TGI         68.6 µM
 3  CC(OC(=O)NCn1cc(-c2ccccc2)nn1)c1ccccc1 (stereo not given)                TGI        > 100 µM
 4  CC(C)C1(C)N=C(C(F)(F)F)c2cc(C(=O)C(F)(F)F)c3ccccc3c2N1 (stereo not given)                TGI         17.6 µM
 5       CC(C)(C)c1nc2c(o1)C(=O)c1ccccc1C2=O                TGI         3.37 µM
 6          O=C1CN2Cc3cc(N4CCOCC4)ccc3N=C2N1                TGI        > 100 µM
 7  O=C1C(/C=C/c2ccc(Cl)cc2)=NNC2N1N=C1NC(=O)C3(NN12)c1ccccc1-c1ccccc13 (stereo not given)                TGI        > 100 µM
 8  O=c1[nH]c(Nc2cccc(C(F)(F)F)c2)nc2nc[nH]c12                TGI        > 100 µM
 9  COc1cc(-c2oc3c(OC)c(O)c(OC)c(O)c3c(=O)c2OC)cc(O)c1OC                TGI        > 100 µM
10               CC(=O)O/N=C/c1ncccc1OC(C)=O                TGI        > 100 µM
11  Cc1cccc2c1Oc1cc(Cl)ccc1C2NC(=O)CCN1CCN(CCO)CC1 (stereo not given)                TGI         26.3 µM
12  COc1cc(C2c3cc4c(cc3OC(Nc3ccc(C(=O)O)cc3)C2C)OCO4)cc(OC)c1OC (stereo not given)                TGI        > 100 µM
13                    CON(C)C(C#N)=C(C#N)C#N                TGI         > 10 µM
14                    CN(NC(=O)CCCl)C1=NCCN1                TGI        > 100 µM
15  COCC1OC(OC2C3=C(C(C)C)CCC3(C)/C=C3\C(CCC3(O)COC)C(C)C2O)C(O)C2OC3OC12OC3(C)C1CO1 (stereo not given)                TGI        > 100 µM
16  O=[N+]([O-])c1ccc(C2=NOC(c3ccccc3F)N2C23CC4CC(CC(C4)C2)C3)cc1 (stereo not given)                TGI        > 100 µM
17    CC(=O)N1CC(Nc2ccc(OC(F)(F)F)cc2)=CC1=O                TGI        > 100 µM
18  CCCCCC(O)C1C(=O)OC(C)C(O)/C=C/C=C/C=C/C=C\C=C(\C)C(O)CC(O)CC(O)CC(O)CC(O)CC(O)CC1O (stereo not given)                TGI        > 100 µM
19  Cc1cccc(Oc2nccc(-c3c(-c4ccc(F)cc4)ncn3C3CCNCC3)n2)c1C                TGI       > 23.5 µM
20  CSC(C1c2ccccc2N(C)C2=NC(=O)N(C)C(=O)C21Cl)S(=O)(=O)c1ccc(C)cc1 (stereo not given)                TGI         46.3 µM

---

# System: HCT-15 colon
# measurement_protocol: NCI tumour cell line growth inhibition, 48 h
quantity_measured: TGI

> print(dat)
                                   compound  quantity.measured  measured.value
1  CC1(C)CC(=O)C2=C(C1)c1c(ccc3ccccc13)NC2c1cn(Cc2ccc(Cl)cc2)c2ccccc12 (centres undefined)                TGI        > 100 µM
2  O=c1[nH]c(Nc2cccc(C(F)(F)F)c2)nc2nc[nH]c12                TGI        > 100 µM
3  CCCCn1c(C)c(C(=O)OCC)s/c1=N/Nc1nc2ccccc2nc1-c1ccccc1                TGI        > 100 µM
4  COC1=CC(=O)[C@H]2[C@H](C)C(c3ccccc3)[C@@]2(C)C1=O (some centres undefined)                TGI        > 100 µM
5  Cc1cc2c(=O)n(-c3ccc(F)cc3)c(C)nc2c(C(=O)O)c1C                TGI        > 100 µM
6  O=C1NC(Cc2c[nH]c3ccccc23)C(=O)N2C(C3CCCCC3)c3[nH]c4ccccc4c3C[C@@H]12 (some centres undefined)                TGI         35.9 µM
7  O=C(NNC(=S)Nc1ccccc1)c1ccccc1Nc1ccccc1C(=O)NNC(=S)Nc1ccccc1                TGI        > 100 µM
8  O=[N+]([O-])c1ccc(C2=NOC(c3ccccc3F)N2C23CC4CC(CC(C4)C2)C3)cc1 (centres undefined)                TGI        > 100 µM
9  N#Cc1c(-c2ccc([N+](=O)[O-])cc2)cc(-c2ccc(Nc3ccnc4cc(C(F)(F)F)ccc34)cc2)nc1N                TGI         23.6 µM

---

# Tested on: M19-MEL melanoma
# measurement_protocol: NCI tumour cell line growth inhibition, 48 h
quantity_measured: TGI (µM)

> print(dat)
                                    molecule  qual  measured.value
 1                COc1ccc(/C=C2\CCCCC2=O)cc1     >             100
 2  Cc1ccc(NC(=O)NC(=O)c2ccc([N+](=O)[O-])cc2[N+](=O)[O-])cc1Oc1ncc(Cl)cn1     =            21.7
 3    C=C/C=C(\NC(=O)C(Cl)(Cl)Cl)[Si](C)(C)C     >             100
 4  CCC[CH2][Sn]([CH2]CCC)([O]C(=O)c1cc(F)cc(F)c1)[O]C(=O)c1cc(F)cc(F)c1     =            1.74
 5  CCCCc1c2c(nc3c1CCCC3O)/C(=C/c1ccccc1)CCC2 (stereo not given)     =            57.1
 6  COc1cc(C2C(Cl)C(=O)N2NC(=O)c2ccccc2O)ccc1O (stereo not given)     >             100
 7  CC(=O)Oc1cc(OC(C)=O)c2c(=O)c3ccccc3[nH]c2c1     =            86.9
 8  O=C(CO)CC(=O)C(=O)Nc1nc([N+](=O)[O-])cs1     >             100
 9  C[C@]12CCC[C@H](Cl)C1(O)C[C@H](C(=O)O)CC2 (stereo not given in full)     >             100
10  NC(=O)N1N=C2c3ccccc3CC[C@@H]2C1c1ccccc1 (stereo not given in full)     >             100
